Tested on: PC-3 prostate
protocol: NCI-60 one-dose screen, 48 h
condition-summary: 10 µM unless noted
This is part of a sample that, as a whole, favours compounds with a hit. Of some 83,000 tested, about 20% had one in any assay. Activity calls are given as the source filed them. Rule for the calls: active = growth percent below 10; inactive = the rest.
Outcomes: active, inactive

compound	classification
O=C(c1ccc(O)cc1)C1[C@H](c2ccc(Cl)cc2)[C@@H](c2ccccc2)NC12C(=O)Nc1ccccc12 (some centres not stated)	active
CC[C@]12C=CCN3CC[C@@]4(c5ccc(OC)cc5N(C)[C@H]4[C@@](O)(C(=O)OC)[C@@H]1OC(=O)CCCC[P+](c1ccc(F)cc1)(c1ccc(F)cc1)c1ccc(F)cc1)[C@@H]32	inactive
COc1cccc(C(N)=Nc2ccc(OCCCCCCCCn3cncn3)cc2)c1	inactive
O=[N+]([O-])c1cccc(-c2nnc3c(/C=C/c4ccc(F)cc4)nc4ccccc4n23)c1	inactive
c1ccc(CSc2nnc(-c3ccc4nc(-c5ccccc5)[nH]c4c3)o2)cc1	inactive
Cc1ccc(C2CC(c3ccc(S(=O)(=O)NCCNc4nc(N(C)C)nc(N5CCOCC5)n4)cc3)=Nc3c(N)nc(N)nc3N2)cc1 (configuration not stated)	inactive
O=C(N/N=C/c1ccc(Cl)cc1)c1ccc(OCc2nc3ccc(Cl)cc3[nH]2)cc1	active
CCCSc1nnc(-c2sc3nc4ccccc4n3c2C)o1	inactive
O=C(c1ccc(Cl)cc1)C1[C@H](c2ccccc2Cl)[C@@H](c2ccccc2)NC12C(=O)Nc1ccc(Cl)cc12 (some centres not stated)	active
O=C(NNC(=O)c1ccc(OCc2nc3ccc(Cl)cc3[nH]2)cc1)Nc1ccc(Cl)c(C(F)(F)F)c1	inactive
COc1cc2cc(C(=O)N3C[C@@H](CCl)c4c3cc(OC(=O)N(C)CCSSCCN3CCOCC3)c3ccccc43)[nH]c2c(OC)c1OC	active
COc1ccc(C2=NN(C(=O)[C@H]3[C@@H](c4ccco4)c4sc(=O)[nH]c4S[C@@H]3C)C(c3ccc4ccccc4c3)C2)cc1 (some centres not stated)	inactive
CCN1CCN(Cc2ccc(C(=O)Nc3cccc(Nc4ccc5c(OC)cccc5n4)c3)cc2C(F)(F)F)CC1	active
Cn1cc(-c2cc(N)n3nc(-c4c[nH]c5ccccc45)cc3n2)c2cc(Cl)ccc21	active
Cc1nc2sccn2c1-c1nnc(SCc2ccccc2)o1	inactive
O=C1NC(=S)/C(=C/c2cn(-c3ccccc3)nc2-c2ccccc2)S1	inactive
CCc1ccccc1-c1nc(CN[C@@H]2C[C@@H]3C[C@H]([C@H]2C)C3(C)C)c(C)o1	active

----------
System: MALME-3M melanoma
protocol: NCI-60 one-dose screen, 48 h
condition-summary: 10 µM unless noted
The panel holds about 83,000 compounds, 20% with a hit somewhere; the sample as a whole holds those more often. The source made the active and inactive calls. The calls were made as follows: active = growth percent below 10; inactive = the rest.
Outcomes: t = active, f = inactive

compound	classification
COc1ccc(C(=O)c2cc(C(C)=O)c3c(C)cc(C)cn23)cc1	f
CCCn1c(NC(=O)c2cccc(C(N)=O)c2)nc2cc(CN3CCCCC3)ccc21	f
CCCCC[C@@H]1C/C=C(\C)[C@@H](O)C(C)(C)C(=O)[C@@H](C)/C=C(\C)[C@@H]2C[C@H](O)C[C@](O)(CC(=O)O1)O2	f
Cc1ccc(C(=O)C[n+]2cccc3c4ccccc4ccc32)cc1	f
O=c1ccc(Cn2c(C(F)(F)F)cc3c(Cl)ncnc32)c[nH]1	f
Cc1ccc(C2CC(c3ccc(NC(=S)Nc4ccccc4)cc3)=NN2c2ccc(S(N)(=O)=O)cc2)cc1 (centres undefined)	t
CC1=C(C(=O)Nc2ccccc2)C(c2cccc(Cl)c2Cl)n2c(nc3ccccc32)N1 (centres undefined)	f
CC(C)C[C@H](NC(=O)CNC(=O)C[C@H]1O[C@@H]2OC3(C)CC[C@H]4[C@H](C)CC[C@@H]([C@H]1C)[C@@]24O3)B(O)O	t
CCCCCCCCc1cccc(CC(=O)Nc2ccc(C)cc2C(=O)O)c1	f
